Where do these numbers come from? They come from the supplement of paper PMC10307832.

Overview of reported relative viability across a group of compounds:
- Tested on: LCLC-103H
- Protocol text: relative viability (nuclei count vs DMSO), 5 days (fraction); higher = more cells survive
- Settings: first compound 20 µM
Measured quantity: relative viability

>  <Compound>
Cc1csc(=NC2CCCCC2)n1/N=C/c1ccc(O)c(O)c1O [MIM1] + CC(=O)c1c(C)c2cnc(Nc3ccc(N4CCNCC4)cn3)nc2n(C2CCCC2)c1=O [Palbociclib] (partner 0.5 µM)

>  <Readout value>
0.389

$$$$
>  <Compound>
Cc1csc(=NC2CCCCC2)n1/N=C/c1ccc(O)c(O)c1O [MIM1] + CS(=O)(=O)N1CCN(Cc2cc3nc(-c4cccc5[nH]ncc45)nc(N4CCOCC4)c3s2)CC1 [Pictilisib] (partner 1 µM)

>  <Readout value>
0.59

$$$$
>  <Compound>
Cc1csc(=NC2CCCCC2)n1/N=C/c1ccc(O)c(O)c1O [MIM1] + O=C(CCCCCCC(=O)Nc1ccccc1)NO [Vorinostat] (partner 1 µM)

>  <Readout value>
0.342

$$$$
>  <Compound>
Cc1csc(=NC2CCCCC2)n1/N=C/c1ccc(O)c(O)c1O [MIM1] + NC(=O)Nc1cc(-c2cccc(F)c2)sc1C(=O)N[C@H]1CCCNC1 [AZD7762] (partner 0.2 µM)

>  <Readout value>
0.399

$$$$

====

- System: COR-L 105
- Protocol text: relative viability (nuclei count vs DMSO), 5 days (fraction); higher = more cells survive
- Settings: first compound 0.253 µM
Just a reminder that ties go to NOT MET: only relative viability strictly below 0.7 counts as MET.

>  <Compound>
Nc1cccc2c1CN(C1CCC(=O)NC1=O)C2=O (stereo unspecified) [Lenalidomide] + CC1(C)CCC(c2ccc(Cl)cc2)=C(CN2CCN(c3ccc(C(=O)NS(=O)(=O)c4ccc(N[C@H](CCN5CCOCC5)CSc5ccccc5)c(S(=O)(=O)C(F)(F)F)c4)cc3)CC2)C1 [Navitoclax] (partner 0.5 µM)

>  <Assigned class>
MET

$$$$
>  <Compound>
Nc1cccc2c1CN(C1CCC(=O)NC1=O)C2=O (stereo unspecified) [Lenalidomide] + CC(=O)c1c(C)c2cnc(Nc3ccc(N4CCNCC4)cn3)nc2n(C2CCCC2)c1=O [Palbociclib] (partner 0.5 µM)

>  <Assigned class>
MET

$$$$
>  <Compound>
Nc1cccc2c1CN(C1CCC(=O)NC1=O)C2=O (stereo unspecified) [Lenalidomide] + Nc1nc2[nH]cc(CCc3ccc(C(=O)N[C@@H](CCC(=O)O)C(=O)O)cc3)c2c(=O)[nH]1 [Pemetrexed] (partner 0.2 µM)

>  <Assigned class>
NOT MET

$$$$
>  <Compound>
Nc1cccc2c1CN(C1CCC(=O)NC1=O)C2=O (stereo unspecified) [Lenalidomide] + CC(C)C[C@H](NC(=O)[C@H](Cc1ccccc1)NC(=O)c1cnccn1)B(O)O [Bortezomib] (partner 0.002 µM)

>  <Assigned class>
NOT MET

$$$$

====

- System: NCI-H1993
- Protocol text: relative viability (nuclei count vs DMSO), 5 days (fraction); higher = more cells survive
- Settings: first compound 0.2 µM

>  <Compound>
CN1CCN(CCOc2cc(OC3CCOCC3)c3c(Nc4c(Cl)ccc5c4OCO5)ncnc3c2)CC1 [Saracatinib] + Cc1nc(NC(=O)N2CCC[C@H]2C(N)=O)sc1-c1ccnc(C(C)(C)C(F)(F)F)c1 [Alpelisib] (partner 2 µM)

>  <Target or system>
NCI-H1993

>  <relative viability>
0.531

$$$$
>  <Compound>
CN1CCN(CCOc2cc(OC3CCOCC3)c3c(Nc4c(Cl)ccc5c4OCO5)ncnc3c2)CC1 [Saracatinib] + Cc1cc(Nc2cc(N3CCN(C)CC3)nc(Sc3ccc(NC(=O)C4CC4)cc3)n2)n[nH]1 [Tozasertib] (partner 0.1 µM)

>  <Target or system>
NCI-H1993

>  <relative viability>
0.559

$$$$
>  <Compound>
Cc1csc(=NC2CCCCC2)n1/N=C/c1ccc(O)c(O)c1O [MIM1] + NC(=O)Nc1cc(-c2cccc(F)c2)sc1C(=O)N[C@H]1CCCNC1 [AZD7762] (partner 0.2 µM)

>  <Target or system>
NCI-H1993

>  <relative viability>
0.704

$$$$
>  <Compound>
CCNC(=O)c1noc(-c2cc(C(C)C)c(O)cc2O)c1-c1ccc(CN2CCOCC2)cc1 [Luminespib] + C[C@]1(O)C[C@@H](c2nc(-c3ccc4ccc(-c5ccccc5)nc4c3)c3c(N)nccn32)C1 [Linsitinib] (partner 1 µM)

>  <Target or system>
NCI-H1993

>  <relative viability>
0.576

$$$$
